# measurement description: cell viability in Huh7 cells, primary screen, cytotoxicity control for HCV replication inhibitor project, CellTiter-Glo luminescence, basal, 48 h (AID 1143);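 also: Huh7 hepatoma cells carrying a hepatitis C replication reporter with no stimulus; test concentration not given here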
# measurement setup: Huh7 HCV replicon, higher = more signal, called active from +8 up or from −8 down
Task for the reader: assign each of the following molecules its reported z-score.
Give a plain numeric answer without units written out.

**Query** GET /values?readout=z-score&item= "C=CC[C@]1(C(=O)N2CCOCC2)N=C(c2ccc(OCCCO)cc2)O[C@H]1c1ccccc1"
**Result** -2.02

**Query** Cool, now COc1cc2c(cc1O)C(C)N(Cc1cccc(OC(F)(F)F)c1)CC2 (stereo not drawn)
**Result** -0.842

**Query** Cool, now CCOC(=O)[C@H]1C[C@H]2O[C@@]23C[C@H]1C(=O)N1CCCC1[C@@H]3O[Si](C)(C)C(C)(C)C (stereo partly drawn)
**Result** -2.14

**Query** Cool, now "Cc1ccc(S[C@]2(C(=O)NCC(C)C)CC(=O)N(Cc3ccccc3)[C@@H]2c2ccc(CO)cc2I)cc1"
**Result** -2.48

**Query** Cool, now "CC(C)C[C@@H]1NC(=O)[C@@H]2C[C@H](C(=O)NCCCCCC[N+](C)(C)C)[C@H](c3ccc(O)cc3)N2C1=O"
**Result** 0.0436

**Query** Cool, now CCCCCN1CC=CC23O[C@@H]4/C=C\CCCOC(=O)C4[C@H]2C(=O)N(CCCCCCO)[C@@H]3C1=O (stereo partly drawn)
**Result** -1.95

**Query** Cool, now CC(C)c1ccc(NN2C(C(O)c3cccc(O)c3)C=CC3C(=O)N(c4ccccc4)C(=O)C32)cc1 (stereo not drawn)
**Result** -0.392

**Query** Cool, now "C[N+](C)(C)CCCCCCNC(=O)[C@H]1C[C@H]2C(=O)N3CCC[C@H]3C(=O)N2[C@H]1c1ccc(O)cc1"
**Result** -2.61

###

# Tested on: Sam68 (KHDRBS1)
# measurement description: Sam68 small-molecule binders, primary screen, biochemical, small-molecule microarray, 635 nm fluorescence (AID 1125);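 also: score merges 667 nm channel intensity with signal to noise over triplicate slides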
# measurement setup: small-molecule microarray binding, higher = more signal
attribute measured: composite z-score
Give a plain numeric answer without units written out.

**Query** State its composite z-score on Sam68 (KHDRBS1): CCCCCN1CC=CC23O[C@@H]4/C=C\CCCOC(=O)C4[C@H]2C(=O)N(CCCCCCO)[C@@H]3C1=O (stereo partly specified)
**Result** -0.542

**Query** Cool, now CCN(CC)c1ccc(N2CC=CC34O[C@@H]5/C=C\CCCOC(=O)C5[C@H]3C(=O)N(C(CO)C(C)C)[C@@H]4C2=O)cc1 (stereo partly specified)
**Result** -0.384

**Query** Cool, now "CCCC[C@H]1OB(O)C[C@H]2C1=C(C)C[C@H]1C(=O)N(Cc3ccccc3)C(=O)[C@H]12"
**Result** 0.663

**Query** Cool, now "COC(=O)C(CC#Cc1ccc2c(c1)[C@]1(C(=O)N2)[C@H](C(=O)NC[C@H](O)c2ccccc2)[C@H]2C(=O)O[C@H](c3ccccc3)[C@H](c3ccccc3)N2[C@@H]1c1ccc(OCCO)cc1)C(=O)OC"
**Result** 1.27

**Query** Cool, now "C=CC[C@]1(C(=O)N2CCOCC2)N=C(c2ccc(OCCCO)cc2)O[C@H]1c1ccccc1"
**Result** 0.618

**Query** Cool, now "COCCOC(=O)N1C(=O)[C@@]2(c3cc(C#CCC(C(=O)OC)C(=O)OC)ccc31)[C@H](C(=O)N1CCN(c3ncccn3)CC1)[C@H]1C(=O)O[C@H](c3ccccc3)[C@H](c3ccccc3)N1[C@@H]2c1ccc(OCCO)cc1"
**Result** 1.3

###

# System: Chordin-like protein 2 (CHRDL2)
# measurement description: CHRDL2 small-molecule binders, primary screen, biochemical, small-molecule microarray, 635 nm fluorescence (AID 1126);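 also: printed compound slides probed with Chrdl2 protein at 4 µg/mL for 1 h at 4 C; score merges 667 nm emission intensity with signal to noise over three replicate slides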
# measurement setup: small-molecule microarray binding, fluorescence 635 nm; higher = more signal
Given measured composite z-score, output y if it is greater than or equal to 0.3 and n if not.

**Query** In plain terms: is recorded composite z-score at least 0.3 for "COC(=O)[C@@]1(Cc2ccc(OC)cc2)[C@H]2c3cc(C(=O)N4CCCC4)n(Cc4cc(F)cc5c4OCOC5)c3C[C@H]2CN1C(=O)c1ccccc1" ?
**Result** n

**Query** Cool, now "CC(C)N1C(=O)c2ccccc2[C@@H](C(=O)NCCCN(C)C)[C@@H]1c1ccc(CO)cc1"
**Result** n

**Query** Cool, now "NCCCCCCNC(=O)[C@H]1C[C@H]2C(=O)NCC(=O)N2[C@H]1c1cccc(OCCO)c1"
**Result** y

**Query** Cool, now "CCCN1C(=O)[C@@]2(CCC(=O)OC(C)(C)C)N=C(c3ccc(OCCCO)cc3)O[C@H]2c2ccccc21"
**Result** y

**Query** Cool, now CC(C)c1ccc(NN2C(C(O)c3cccc(O)c3)C=CC3C(=O)N(c4ccccc4)C(=O)C32)cc1 (stereo not drawn)
**Result** n

**Query** Cool, now "COc1ccc([Si](C)(C)[C@H]2[C@H](CCn3cc([C@H](O)c4ccccc4)nn3)O[C@@]3(C(=O)N(Cc4cccc(N5CCC5=O)c4)c4ccccc43)[C@@H]2C)cc1"
**Result** y

**Query** Cool, now "O=c1cccc(C=Cc2ccccc2)o1"
**Result** n

**Query** Cool, now CS(=O)(=O)CCOC(=O)C1=CC(CCCO)=CC(c2cccs2)N(Cc2cc3c(cc2Br)OCO3)C=C1C(=O)OCCS(C)(=O)=O (stereo not drawn)
**Result** n

###

Task for the reader: assign each of the following compounds its reported composite z-score.
# system tested: Focal adhesion kinase 1 (Homo sapiens) (UniProt Q05397)
# Sequence (Q05397 whole entry, looked up): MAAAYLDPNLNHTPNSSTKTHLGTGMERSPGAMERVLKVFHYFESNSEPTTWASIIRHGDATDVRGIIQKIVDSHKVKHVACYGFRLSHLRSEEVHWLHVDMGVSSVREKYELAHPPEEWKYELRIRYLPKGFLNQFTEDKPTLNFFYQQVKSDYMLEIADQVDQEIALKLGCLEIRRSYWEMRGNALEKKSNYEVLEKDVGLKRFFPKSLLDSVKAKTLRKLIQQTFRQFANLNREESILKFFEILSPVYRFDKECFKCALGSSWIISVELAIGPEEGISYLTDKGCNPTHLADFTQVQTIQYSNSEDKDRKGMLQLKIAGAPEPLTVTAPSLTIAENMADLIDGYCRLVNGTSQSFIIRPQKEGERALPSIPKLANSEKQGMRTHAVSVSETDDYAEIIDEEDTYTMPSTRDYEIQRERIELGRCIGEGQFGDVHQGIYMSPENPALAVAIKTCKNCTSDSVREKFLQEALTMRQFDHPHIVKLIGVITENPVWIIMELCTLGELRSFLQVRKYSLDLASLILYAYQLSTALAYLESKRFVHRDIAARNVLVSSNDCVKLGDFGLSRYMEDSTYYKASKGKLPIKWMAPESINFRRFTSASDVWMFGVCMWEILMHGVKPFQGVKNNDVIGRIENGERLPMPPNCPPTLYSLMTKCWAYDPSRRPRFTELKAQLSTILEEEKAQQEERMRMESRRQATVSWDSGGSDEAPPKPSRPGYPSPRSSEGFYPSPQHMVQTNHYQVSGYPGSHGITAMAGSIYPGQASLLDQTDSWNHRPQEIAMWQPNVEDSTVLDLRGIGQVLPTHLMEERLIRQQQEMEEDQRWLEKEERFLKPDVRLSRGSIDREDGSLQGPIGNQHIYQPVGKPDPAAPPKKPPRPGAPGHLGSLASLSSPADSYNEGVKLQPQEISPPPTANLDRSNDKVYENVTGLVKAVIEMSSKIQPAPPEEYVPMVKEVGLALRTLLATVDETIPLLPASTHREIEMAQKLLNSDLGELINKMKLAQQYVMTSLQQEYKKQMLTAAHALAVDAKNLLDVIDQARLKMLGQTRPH
# measurement description: small-molecule microarray binders of FAK, primary screen, biochemical, 635/667 nm fluorescence, BSA, DTT (AID 1130);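 also: composite of spot emission at 667 nm and signal to noise over triplicate slides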
# measurement setup: PTK2 binding, 635 nm fluorescence, higher = more signal
Give a plain numeric answer without units written out.

**Query** GET /values?readout=composite z-score&item= CC(C)(C)N1CC=CC23O[C@@H]4C=CCOC(=O)[C@@H]4[C@H]2C(=O)N(CCCCCO)[C@@H]3C1=O (some centres undefined)
**Result** -0.758

**Query** Cool, now "[N-]=[N+]=NCc1ccccc1C[C@]1(C(=O)O)N=C(c2ccc(OCCCO)cc2)O[C@H]1c1ccccc1CN=[N+]=[N-]"
**Result** 0.378

**Query** Cool, now "COc1ccc([Si](C)(C)[C@H]2[C@H](CCn3cc(CCO)nn3)O[C@@]3(C(=O)N(Cc4ccc(N5CCOC5=O)cc4)c4ccccc43)[C@@H]2C)cc1"
**Result** 0.105

**Query** Cool, now "CCCNC(=O)[C@@H]1c2ccccc2C(=O)N(Cc2ccccc2)[C@H]1c1ccc(CO)cc1"
**Result** -0.255

###

# measurement description: fission yeast growth modulation, primary screen, strain 972, OD600, 24 h, no modulator (AID 1090);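 also: basal condition with compound alone and no growth modifier present; test concentration not given here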
# measurement setup: S. pombe 972 growth, higher = more signal, called active from +8 up or from −8 down
Task for the reader: assign each of the following molecules its reported z-score.
Give a plain numeric answer without units written out.

**Query** GET /values?readout=z-score&item= "CC(C)C[C@@H]1NC(=O)[C@@H]2C[C@H](C(=O)NCCCCCC[N+](C)(C)C)[C@H](c3ccc(O)cc3)N2C1=O"
**Result** 0.904

**Query** Cool, now "Cc1ccc([C@H]2[C@H](C(=O)O)[C@H](Sc3ccccc3)[C@@H](C(C)C)N2S(=O)(=O)c2ccc(C)cc2)cc1"
**Result** -0.0319

**Query** Cool, now CCCCCCCCCCC(O)C1C=CC2C(=O)N(Cc3ccccc3)C(=O)C2N1n1cnnc1 (centres undefined)
**Result** -0.25

**Query** Cool, now "CN(C)CCCCCCNC(=O)[C@H]1C[C@H]2C(=O)N[C@@H](CCCCN)C(=O)N2[C@H]1c1ccc(O)cc1"
**Result** -2.88

###

# system tested: NADPH oxidase 4 (Homo sapiens) (UniProt Q9NPH5)
# Sequence (Q9NPH5 whole entry, looked up): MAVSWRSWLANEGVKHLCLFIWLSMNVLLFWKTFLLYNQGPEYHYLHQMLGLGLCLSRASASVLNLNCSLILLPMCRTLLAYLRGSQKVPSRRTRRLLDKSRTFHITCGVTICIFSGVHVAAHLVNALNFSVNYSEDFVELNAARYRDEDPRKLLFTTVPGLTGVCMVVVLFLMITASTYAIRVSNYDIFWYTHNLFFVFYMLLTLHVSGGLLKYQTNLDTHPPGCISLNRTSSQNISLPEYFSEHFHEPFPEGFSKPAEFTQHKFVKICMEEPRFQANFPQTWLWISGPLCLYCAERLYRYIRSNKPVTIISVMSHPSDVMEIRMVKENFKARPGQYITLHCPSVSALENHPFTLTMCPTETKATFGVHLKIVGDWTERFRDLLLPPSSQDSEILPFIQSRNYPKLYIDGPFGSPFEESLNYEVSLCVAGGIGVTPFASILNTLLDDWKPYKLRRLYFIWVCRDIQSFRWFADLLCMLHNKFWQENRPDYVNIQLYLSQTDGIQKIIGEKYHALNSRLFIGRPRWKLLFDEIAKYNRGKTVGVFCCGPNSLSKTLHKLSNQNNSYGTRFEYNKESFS
# measurement description: NOX4-dependent H2O2 signal modulators, primary screen, NOX inhibitor project, cell-based, HEK293-NOX4, tetracycline-induced, Amplex Red fluorescence (AID 1160)
# measurement setup: 45 min, higher = more signal, called active from +8 up or from −8 down
Task for the reader: assign each of the following compounds its reported z-score.
Give a plain numeric answer without units written out.

**Query** State its z-score on NADPH oxidase 4 (Homo sapiens) (UniProt Q9NPH5): CCCCCCCCCCC(O)C1C=CC2C(=O)N(Cc3ccccc3)C(=O)C2N1n1cnnc1 (centres undefined)
**Result** -1.1

**Query** Cool, now "COc1cc2c(cc1OC)CN(C(=O)[C@@H]1[C@H]3C(=O)O[C@H](c4ccccc4)[C@H](c4ccccc4)N3[C@H](c3ccccc3OCCO)[C@@]13C(=O)Nc1ccc(C#CCNC(N)=O)cc13)CC2"
**Result** 0.964

**Query** Cool, now CCCCC(O)C1C=CC2C(=O)N(C3CCCCC3)C(=O)C2N1Nc1ccc(OC)cc1 (centres undefined)
**Result** -2.06

**Query** Cool, now "C=CC[C@@]1(C(=O)N2CCOCC2)N=C(c2ccc(OCCCO)cc2)O[C@@H]1c1ccccc1N=[N+]=[N-]"
**Result** -0.164
